B1: TMEM106C (parent)
chain: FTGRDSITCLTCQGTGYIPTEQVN

Variants of: B1
protocol.summary: protein stability index of a GFP-peptide fusion (GPS, HEK-293T) (PSI 1-6); higher = more stable;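 also: lentivirally expressed fusions sorted by FACS into six bins by GFP to DsRed ratio, PSI derived from sequencing read proportions per bin multiplied by bin number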
measurement.conditions: c terminus: a fixed tail appended
quantity: protein stability index

Some solved entries appear below for comparison.
Q13V :: 2
S6Y :: 2.04
Y17W :: 3.54
G16C :: 1.83
Q13H :: 2.09

State the recorded protein stability index for every item in the following list.
1. F1H
2. C12G
3. F1P
4. N24F

1: 4.52; 2: 2.04; 3: 4.63; 4: 1.92

Reference for the values: the supplement of paper PMC10567573
